experiment: SUPPLEMENTARY: Lyophilisation Solubility Assay (LYSA); assay type: physicochemical; settings: read-out: Kinetic_solubility
Parameter: solubility kinetic (µg/mL)

In the examples that follow, each entry is paired with its recorded solubility kinetic.
- Compound: "COc1ccc(Cl)cc1S(=O)(=O)N1C[C@@H](C)c2ccc(C(=O)Nc3ccc(C(=O)O)cc3)cc21"
  solubility kinetic / µg/mL: 6
- Compound: "Cc1ccc(-c2nc([C@H]3CCCCN3C(=O)COc3ccccc3)cs2)cn1"
  solubility kinetic / µg/mL: 37
- Compound: "COc1ccc(Cl)cc1S(=O)(=O)N1CCOc2ccc(C(=O)Nc3nc(CC(=O)O)cs3)cc21"
  solubility kinetic / µg/mL: 26
- Compound: "O=C1Cc2ccc(-c3n[nH]c([C@H]4CCCCN4C(=O)COc4ccccc4)n3)cc2N1"
  solubility kinetic / µg/mL: 73
- Compound: "COC1CCC(c2nc([C@H]3CCCCN3C(=O)COc3ccccc3)no2)CC1 (stereo partly drawn)"
  solubility kinetic / µg/mL: 50.5
- Compound: "Nc1ccc(-c2n[nH]c([C@H]3CCCCN3C(=O)COc3ccccc3)n2)cn1"
  solubility kinetic / µg/mL: 111

a: COc1ccc(Cl)cc1S(=O)(=O)N1CCS(=O)(=O)c2ccc(C(=O)Nc3ccc(C(=O)O)cc3)cc21
b: O=C1COc2cc(C#C[C@H]3CCCCN3C(=O)COc3ccccc3)ccc2N1
c: Cc1cc(C(=O)Nc2ccc(-c3nnn[nH]3)cc2)nn1Cc1ccc(OC(F)F)cc1
d: NS(=O)(=O)c1ccc2c(c1)CN(C(=O)[C@H]1CCCCN1C(=O)COc1ccccc1)CC2
e: O=C(COc1ccccc1)N1CCCC[C@@H]1c1nc(-c2ccccc2F)n[nH]1
Qu. Provide the items ranked by increasing solubility kinetic. Kindly provide the labels arranged according to the requested ordering.
Ans. b, a, c, e, d
(b: 2 µg/mL, a: 3 µg/mL, c: 31 µg/mL, e: 61.5 µg/mL, d: 175 µg/mL)

a: O=C(COc1ccccc1)N1CCCC[C@@H]1c1noc(-c2ccc3cccnc3n2)n1
b: COc1ccc(Cl)cc1CN1C(=O)C(C)(C)c2ccc(C(=O)Nc3nc(CC(=O)O)cs3)cc21
Qu. Lower solubility kinetic: a or b ? Lab log: write the label of the selected item as the result.
Ans. a
(a: 31.5 µg/mL, b: 418 µg/mL)

P: O=C(NCc1ccccc1)[C@H]1CCCCN1C(=O)COc1ccccc1
Q: O=C1Cc2cc(-c3noc([C@H]4CCCCN4C(=O)COc4ccccc4)n3)ccc2N1
Qu. Param pair: P , Q . Output: the one whose solubility kinetic is numerically greater. Lab log: write the label of the selected item as the result.
Ans. P
(P: 43 µg/mL, Q: 14.5 µg/mL)

1: O=C(O)c1ccc(NC(=O)c2ccc3ccn(S(=O)(=O)c4cccc(Cl)c4)c3c2)cc1
2: COc1ccc(Cl)cc1S(=O)(=O)N1COc2ccc(C(=O)Nc3ccc(C(=O)O)c(F)c3)cc21
3: COc1ccc(Cl)cc1S(=O)(=O)N1CCCc2ccc(C(=O)Nc3ccc(C(=O)O)cc3)cc21
4: COc1ccc(Cl)cc1S(=O)(=O)N1CCOc2ccc(C(=O)Nc3ccc(C(=O)O)c(F)c3)cc21
Qu. Provide the items ranked by increasing solubility kinetic. Kindly provide the labels arranged according to the requested ordering.
Ans. 1, 3, 4, 2
